# Test system: Trypanosoma cruzi
# test protocol: In vitro antitrypanosomal activity against Trypanosoma cruzi epimastigote, CL strain
# Assay type: functional, organism-based
measured quantity: log10 IC50 (log10 of the value in µM)
Note the log scale: values are log10 of IC50 expressed in µM.

>  <compound>
O=C1C(=O)c2ccoc2-c2ccccc21

>  <log10 IC50>
0.41

$$$$
>  <compound>
COc1ccc2c(c1)C(=O)c1cc(C(C)O)oc1C2=O (stereo unspecified)

>  <log10 IC50>
0.42

$$$$

Prompt: Give a short answer stating reported log10 IC50 for COc1ccc2c(OC(C)=O)c3cc(C(C)=O)oc3cc2c1 .
Response: 0.27

Prompt: Give a short answer stating reported log10 IC50 for O=C(Cn1ccnc1[N+](=O)[O-])NCc1ccccc1 .
Response: 0.95

Prompt: Give a short answer stating reported log10 IC50 for COc1ccc2c(c1)C(=O)c1oc(C(C)=O)cc1C2=O .
Response: -0.28

Prompt: Give a short answer stating reported log10 IC50 for CC1CS(=O)(=O)CCN1/N=C/c1ccc([N+](=O)[O-])o1 (stereo unspecified) .
Response: 0.58
